B1: Chromodomain-helicase-DNA-binding protein 4, residues 623 to 675; numbered along this chain, Q14839 (parent)
chain: MIHRILNHSVDKKGHVHYLIKWRDLPYDQASWESEDVEIQDYDLFKQSYWNHR

variants of: B1; assay: abundance fitness (aPCA) (normalised: wild type 0, dead -1); higher = more abundant; growth selection in yeast, the domain comes from the species named; details: Homo sapiens
Categories are defined by ranges of abundance fitness, namely low group = under -0.7, middle group = from -0.7 up to -0.3, high group = -0.3 and over

Worked set:
- MUTANT: "A30V"
  ASSIGNED_CLASS: "middle group"
- MUTANT: "L25Q"
  ASSIGNED_CLASS: "high group"
- MUTANT: "I20A"
  ASSIGNED_CLASS: "low group"
- MUTANT: "W32V"
  ASSIGNED_CLASS: "low group"
- MUTANT: "A30L"
  ASSIGNED_CLASS: "low group"
- MUTANT: "D11V"
  ASSIGNED_CLASS: "low group"
- MUTANT: "S31C"
  ASSIGNED_CLASS: "middle group"
- MUTANT: "Y27D"
  ASSIGNED_CLASS: "high group"
- MUTANT: "D11P"
  ASSIGNED_CLASS: "low group"
- MUTANT: "L19V"
  ASSIGNED_CLASS: "low group"

Q: Which class is correct for the following variant? D11Q
Ans: low group

Q: Class (by measured abundance fitness) for L25N
Ans: high group

Q: For the record Q29S , report the class its abundance fitness corresponds to.
Ans: high group

Q: Which abundance fitness category applies to S31G here?
Ans: low group

Q: # classify by abundance fitness band: V16G
Ans: low group

Q: Quick check: band for E33D
Ans: low group
